Study System: MK2 (Homo sapiens, UniProt P49137)
Sequence (P49137 whole entry): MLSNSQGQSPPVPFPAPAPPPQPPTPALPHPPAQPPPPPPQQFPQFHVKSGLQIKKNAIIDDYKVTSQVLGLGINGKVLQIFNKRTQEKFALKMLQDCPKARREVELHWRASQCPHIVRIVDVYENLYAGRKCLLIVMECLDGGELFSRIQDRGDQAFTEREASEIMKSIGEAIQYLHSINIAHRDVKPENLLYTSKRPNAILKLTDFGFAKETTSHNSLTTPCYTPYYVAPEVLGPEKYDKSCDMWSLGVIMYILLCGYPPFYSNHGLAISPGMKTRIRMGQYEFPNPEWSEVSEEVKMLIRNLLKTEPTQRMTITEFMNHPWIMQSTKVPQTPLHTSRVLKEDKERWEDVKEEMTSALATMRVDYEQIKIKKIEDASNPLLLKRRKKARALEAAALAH
Method: MK2 degradation in human SW1353 cells (MSD, 24 h)
Assay type: cell-based
Design: endogenous in cells; host or cells: SW-1353 (ATCC HTB-94)
Condition Description: read-out: MK2 MSD SW1353 degradation 24 h GMean External Abs DC50
Method: MK2 Degradation in Human SW1353 Cells […] After 3 more washes, the secondary detection antibody (SULFO-Tag anti rabbit antibody R32AB-5) was added at a final concentration of 1 microgram per ml at 25 microlitres per well and shaken at room temperature for 1 hour at 600 rpm. After 3 more washes, the 1×MSD (diluted from 5× concentrate with water) reading buffer was added at 150 microlitres per well and read on the MSD instrument Meso Sector S 600. […]
Experimental Endpoint: DC50

Would you kindly share the measured DC50 for Cc1cc(-c2cc(-c3cc4c([nH]3)C3(CC3)CNC4=O)ccn2)cc(C)c1N1CCN(CC2CCN(c3ccc4c(c3)n(C)c(=O)n4C3CCC(=O)NC3=O)CC2)CC1 (centres unmarked) ?
< 1 nM

Would you kindly share the measured DC50 for C[C@@H]1CNc2c(sc3ccc4nc(-c5ccc(N6CCC(CN7CCC(c8cccc9c(N%10CCC(=O)NC%10=O)cncc89)CC7)CC6)cc5)ccc4c23)C(=O)N1 ?
1 to 10 nM

Would you kindly share the measured DC50 for Cc1cc(N2CCN(CC3CN(c4ccc5c(c4)n(C)c(=O)n5C4CCC(=O)NC4=O)C3)CC2)ccc1-c1ccc2c(ccc3sc4c(c32)NC[C@@H](C)NC4=O)n1 (some centres unmarked) ?
< 1 nM

Would you kindly share the measured DC50 for Cn1c(=O)n(C2CCC(=O)NC2=O)c2ccc(N3CCC(CN4CCN(c5cc(-c6cc(-c7cc8c([nH]7)CCNC8=O)ccn6)cc(C6CCCC6)c5)CC4)CC3)cc21 (centres unmarked) ?
> 100 nM

Would you kindly share the measured DC50 for C[C@@H]1CNc2c(sc3ccc4nc(-c5ccc(N6CCN(C(=O)COCCOCCOCCOCCc7ccc8c(c7)n(C)c(=O)n8C7CCC(=O)NC7=O)CC6)cc5)ccc4c23)C(=O)N1 (some centres unmarked) ?
< 1 nM

Would you kindly share the measured DC50 for C[C@@H]1CNc2c(sc3ccc4nc(-c5ccnc(N6CCN(CC7CCN(c8cccc9c8n(C)c(=O)n9C8CCC(=O)NC8=O)CC7)CC6)c5)ccc4c23)C(=O)N1 (some centres unmarked) ?
1 to 10 nM

Would you kindly share the measured DC50 for CN1CC2(CNC(=O)c3c2[nH]c2c3CCc3cnc(-c4ccc(N5CCN(CCCCc6cccc7c6n(C)c(=O)n7C6CCC(=O)NC6=O)CC5)cc4F)cc3-2)C1 (centres unmarked) ?
10 to 100 nM

Would you kindly share the measured DC50 for Cn1c(=O)n(C2CCC(=O)NC2=O)c2cccc(CCCN3CCN(c4ccc(F)c(-c5cc(-c6cc7c([nH]6)CCNC7=O)ccn5)c4)CC3)c21 (centres unmarked) ?
> 100 nM

Would you kindly share the measured DC50 for C[C@@H]1CNc2c(sc3ccc4nc(-c5cncc(C6CCN(CCCCCCCCc7cccc8c7n(C)c(=O)n8C7CCC(=O)NC7=O)CC6)c5)ccc4c23)C(=O)N1 (some centres unmarked) ?
1 to 10 nM

Would you kindly share the measured DC50 for Cc1cc(N2CCC(CN3CCC(c4ccc5c(c4)n(C)c(=O)n5C4CCC(=O)NC4=O)CC3)CC2)ccc1-c1ccc2c(ccc3sc4c(c32)NC[C@@H](C)NC4=O)n1 (some centres unmarked) ?
< 1 nM

Would you kindly share the measured DC50 for C[C@@H]1CNc2c(sc3ccc4nc(-c5cncc(C6CCN(CC7CCN(c8ccc9c(c8)n(C)c(=O)n9C8CCC(=O)NC8=O)CC7)CC6)c5)ccc4c23)C(=O)N1 (some centres unmarked) ?
< 1 nM

The reported numbers originate from patent US20230135894A1.
